Recorded values, source patent US20040220164A1.

Molecular target: CD4 (Homo sapiens, UniProt P01730)
Test: CD4 down-modulation, flow cytometry with FITC-conjugated anti-CD4 (SK3) mAb, MT-4 cells
Format: cell-based
Parameters: To study the effect of the CADA derivatives on surface CD4 antigen expression, MT-4 and SupT1 cells were incubated; endogenous in cells; host or cells: MT-4, SupT1, PBMC
Conditions: structure-activity discussion of Table 5 (MT-4 and SupT1 cells)
reportedEndpoint: CD4 down-modulating activity compared with CADA or parent analog (in words)

>>> result("C=C1CN(S(=O)(=O)c2ccc(C)cc2)CCCN(C(C)CC)CCCN(S(=O)(=O)c2ccc(C)cc2)C1 (stereo not drawn) [QJ036]")
"somewhat in between"
>>> result("C=C1CN(S(=O)(=O)c2ccc(C)cc2)CCCN(CCC)CCCN(S(=O)(=O)c2ccc(C)cc2)C1 [QJ029]")
"somewhat in between"
>>> result("C=C1CN(S(C)(=O)=O)CCCN(Cc2ccccc2)CCCN(S(C)(=O)=O)C1 [MFS105]")
"significant loss"
>>> result("C=C1CN(S(=O)(=O)c2ccc(COCCCC)cc2)CCCN(Cc2ccccc2)CCCN(S(=O)(=O)c2ccc(COCCCC)cc2)C1 [MFS117]")
"significant loss"

====

Experiment: Cytotoxic concentration (Example 2)
Type: cell-based
Details: human, SupT1 cells; read-out: cytotoxic concentration (CC50)
reportedEndpoint: CC50 (µM)
Numbers only, in µM.

Incoming: Find the recorded CC50 belonging to C=C1CN(S(=O)(=O)c2ccc(C)cc2)CCCN(Cc2ccccc2)CCCN(S(=O)(=O)c2ccc(C)cc2)C1 [CADA] and report it.
Outgoing: 185

====

Test system: HIV-1 strain NL4.3
Assay: Anti-HIV-1 assay in MT-4 cells (p24 Ag ELISA, Example 3)
Assay type: cell-based
Conditions: Human immunodeficiency virus 1, MT4; MT-4 cells; read-out: IC50 HIV-1 (NL4.3), p24 Ag ELISA
Procedure: Antiviral Assays. For HIV-1, MT-4 cells were infected with the HIV-1 strain NL4.3. Briefly, five-fold dilutions of the compounds (in 100 μl) were added to 96-well flat bottom plates (Iwaki, Japan). […] When strong CPE was observed (after 3 to 5 days of incubation) in untreated HIV-1 infected cells, the supernatant was collected, stored at −20° C. and analyzed for HIV-1 core antigen by p24 Ag ELISA (NEN™, PerkinElmer Life Sciences, Boston, Mass.). […]
reportedEndpoint: IC50 (µg/mL)
Numbers only, in µg/mL.

Some solved entries appear below for comparison.
>>> numericresult("C=C1CN(S(=O)(=O)c2ccc(C)cc2)CCCN(C(=O)OCC)CCCN(S(=O)(=O)c2ccc(C)cc2)C1 [Compound 95-213]")
8.05
>>> numericresult("C=C1CN(S(=O)(=O)c2ccc(C)cc2)CCCN(CC2CCCCC2)CCCN(S(=O)(=O)c2ccc(C)cc2)C1 [QJ028]")
0.2
>>> numericresult("C=C1CN(S(=O)(=O)c2ccc(C)cc2)CCCN(C(C)C)CCCN(S(=O)(=O)c2ccc(C)cc2)C1 [QJ035]")
5.55

Field: IC50. Fill in for each record below.
1. C=C1CN(S(=O)(=O)c2ccc(C)cc2)CCCN(C(=O)OCCC)CCCN(S(=O)(=O)c2ccc(C)cc2)C1 [QJ033]
2. C=C1CN(S(=O)(=O)c2ccc(C)cc2)CCCN(CCC)CCCN(S(=O)(=O)c2ccc(C)cc2)C1 [QJ029]
3. C=C1CN(S(=O)(=O)c2ccc(C)cc2)CCCN(CC2CC2)CCCN(S(=O)(=O)c2ccc(C)cc2)C1 [QJ041]
4. C=C1CN(S(=O)(=O)c2ccc(C)cc2)CCCN(Cc2ccccc2)CCCN(S(=O)(=O)c2ccc(C)cc2)C1 [CADA]

Outgoing:
[1.22, 2, 3.66, 0.72]

Record IC50 for all entries; do not skip any.
1. Cc1ccc(S(=O)(=O)N2CCCN(Cc3ccccc3)CCCN(S(=O)(=O)c3ccc(C)cc3)CC(CO)C2)cc1 [HJC321]
2. C=C1CN(S(=O)(=O)c2ccc(C)cc2)CCCN(C2CCCC2)CCCN(S(=O)(=O)c2ccc(C)cc2)C1 [QJ040]
3. C=C1CN(S(=O)(=O)c2ccc(C)cc2)CCCN(CC(C)CC)CCCN(S(=O)(=O)c2ccc(C)cc2)C1 (stereo not drawn) [QJ037]
4. C=C1CN(S(=O)(=O)c2ccc(C)cc2)CCCN(C(C)CC)CCCN(S(=O)(=O)c2ccc(C)cc2)C1 (stereo not drawn) [QJ036]

Outgoing:
1. 3.88
2. 4.23
3. 0.48
4. 0.95

====

Assign IC50 to each entry below.
Molecular target: CD4 (Homo sapiens)
Test: CD4 down-modulation, flow cytometry with FITC-conjugated anti-CD4 (SK3) mAb, SupT1 cells
Format: cell-based
Set-up: To study the effect of the CADA derivatives on surface CD4 antigen expression, MT-4 and SupT1 cells were incubated; endogenous in cells; host or cells: MT-4, SupT1, PBMC
Conditions: day 4, read-out: IC50 CD4 (50% inhibition of extracellular CD4 expression) (converted)

The cases that follow already have their IC50 on record.
>>> result("Cc1ccc(S(=O)(=O)N2CCCN(S(=O)(=O)c3ccc(C)cc3)CC(C)(O)CN(S(=O)(=O)c3ccc(C)cc3)CCC2)cc1 [HJC241]")
"> 75.3 µM"
>>> result("C=C1CN(S(=O)(=O)c2ccc(C)cc2)CCCN(C(C)C)CCCN(S(=O)(=O)c2ccc(C)cc2)C1 [QJ035]")
"> 18.7 µM"
>>> result("C=C1CN(S(=O)(=O)c2ccc(C)cc2)CCCN(S(=O)(=O)c2ccc(C)cc2)CCCN(S(=O)(=O)c2ccc(C)cc2)C1 [AS112]")
"> 77.4 µM"
>>> result("C=C1CN(S(=O)(=O)c2ccc(C)cc2)CCCN(C(C)CC)CCCN(S(=O)(=O)c2ccc(C)cc2)C1 (centres unmarked) [QJ036]")
"3.27 µM"
>>> result("C=C1CN(S(=O)(=O)c2ccc(C)cc2)CCCN(Cc2ccc[nH]2)CCCN(S(=O)(=O)c2ccc(C)cc2)C1 [QJ027]")
"10.5 µM"

Take each entry in turn and give its IC50.
1. C=C1CN(S(C)(=O)=O)CCCN(Cc2ccccc2)CCCN(S(C)(=O)=O)C1 [MFS105]
2. C=C1CN(S(=O)(=O)c2ccc(COCCCC)cc2)CCCN(Cc2ccccc2)CCCN(S(=O)(=O)c2ccc(COCCCC)cc2)C1 [MFS117]
3. C=C1CN(S(=O)(=O)c2ccc(C)cc2)CCCN(C2CCCC2)CCCN(S(=O)(=O)c2ccc(C)cc2)C1 [QJ040]

Outgoing:
1: > 116 µM; 2: > 68.9 µM; 3: 14.1 µM

====

Target: CD4 (Homo sapiens)
Test: CD4 down-modulation, flow cytometry with FITC-conjugated anti-CD4 (SK3) mAb, MT-4 cells
Type: cell-based
Set-up: To study the effect of the CADA derivatives on surface CD4 antigen expression, MT-4 and SupT1 cells were incubated; endogenous in cells; host or cells: MT-4, SupT1, PBMC
Details: MT-4 cells, day 3; read-out: IC50 CD4 (50% inhibition of extracellular CD4 expression) (converted)
Could you please report measured IC50 for the items listed next?

Look over these answered cases.
>>> result("C=C1CN(S(=O)(=O)c2ccc(C)cc2)CCCN(Cc2ccccn2)CCCN(S(=O)(=O)c2ccc(C)cc2)C1 [Compound 98-037]")
"> 85.8 µM"
>>> result("C=C1CN(S(=O)(=O)c2ccc(C)cc2)CCCN(S(=O)(=O)c2ccc(C)cc2)CCCN(S(=O)(=O)c2ccc(C)cc2)C1 [AS112]")
"> 15.5 µM"

Switching to the query record.
Incoming: Missing value: IC50, CD4 (Homo sapiens), entry C=C1CN(S(C)(=O)=O)CCCN(Cc2ccccc2)CCCN(S(C)(=O)=O)C1 [MFS105] . Fill in?
Outgoing: > 116 µM

====

Assay: Cytotoxicity assay (trypan blue exclusion, propidium iodide)
Format: cell-based, human
Settings: human, MT-4 cells; read-out: CC50 (50% cytotoxic concentration)
reportedEndpoint: CC50

Reference set (2 entries):
>>> result("C=C1CN(S(=O)(=O)c2ccc(C)cc2)CCCN(Cc2ccccn2)CCCN(S(=O)(=O)c2ccc(C)cc2)C1")
"> 50 µg/mL"
>>> result("C=C1CN(S(=O)(=O)c2ccc(C)cc2)CCCN(C(=O)OCC)CCCN(S(=O)(=O)c2ccc(C)cc2)C1")
"> 50 µg/mL"

Incoming: Suppose we examine the compound C=C1CN(S(=O)(=O)c2ccc(C)cc2)CCCN(CC(C)C)CCCN(S(=O)(=O)c2ccc(C)cc2)C1 ; what CC50 value has been reported?
Outgoing: > 50 µg/mL

====

System: HIV-1 strain NL4.3
Assay: Anti-HIV-1 assay in MT-4 cells (p24 Ag ELISA, Example 3)
Format: cell-based
Details: Human immunodeficiency virus 1, MT4; MT-4 cells; read-out: IC50 HIV-1 (NL4.3), p24 Ag ELISA
Can you tell me IC50 for the items I'm about to list?

>>> result("Cc1ccc(S(=O)(=O)N2CCCN(Cc3ccccc3)CCCN(S(=O)(=O)c3ccc(C)cc3)CCC2)cc1 [MFS-SC001]")
"> 10 µg/mL"
>>> result("Cc1ccc(S(=O)(=O)N2CCCN(Cc3ccccc3)CCCN(S(=O)(=O)c3ccc(C)cc3)CC(=O)C2)cc1 [MFS010]")
"> 10 µg/mL"
>>> result("C=C1CN(S(=O)(=O)c2ccc(C)cc2)CCCN(Cc2ccccn2)CCCN(S(=O)(=O)c2ccc(C)cc2)C1 [Compound 98-037]")
"> 50 µg/mL"
>>> result("C=C1CN(S(=O)(=O)c2ccc(C)cc2)CCCN(S(=O)(=O)c2ccc(C)cc2)CCCN(S(=O)(=O)c2ccc(C)cc2)C1 [AS112]")
"> 10 µg/mL"
>>> result("C=C1CN(S(C)(=O)=O)CCCN(Cc2ccccc2)CCCN(S(C)(=O)=O)C1 [MFS105]")
"> 50 µg/mL"

# return IC50 for each item in the list
1. C=C1CN(S(=O)(=O)c2ccc(COCCCC)cc2)CCCN(Cc2ccccc2)CCCN(S(=O)(=O)c2ccc(COCCCC)cc2)C1 [MFS117]
2. Cc1ccc(S(=O)(=O)N2CCCN(S(=O)(=O)c3ccc(C)cc3)CC(C)(O)CN(S(=O)(=O)c3ccc(C)cc3)CCC2)cc1 [HJC241]

Outgoing:
["≥ 10 µg/mL", "> 10 µg/mL"]
